System: Pseudomonas aeruginosa
Experiment: Minimum bacterial concentration (MBC) against Pseudomonas aeruginosa
Format: functional
Please map values of MBC to classes as shown: bin 1: < 300 µg/mL; bin 2: ≥ 300 µg/mL and < 2000 µg/mL; bin 3: ≥ 2000 µg/mL

• CCCCCCCCCCCCn1ccnc1 = bin 3
• CCCCCCCCCCCn1ccnc1 = bin 3
• CCCCCCCCCCCCCn1ccnc1 = bin 3
• CCCCCCCCn1ccnc1 = bin 1
• CCCCCCCCCCCCCCn1ccnc1 = bin 3
• CCCCn1ccnc1 = bin 2
• CCCCCCn1ccnc1 = bin 1
• CCCCCn1ccnc1 = bin 1
• CCCCCCCCCn1ccnc1 = bin 1
• CCCCCCCCCCn1ccnc1 = bin 2
• CCCn1ccnc1 = bin 2
• CCCCCCCn1ccnc1 = bin 1
• CCn1ccnc1 = bin 2

---

Reported MIC values for a set of molecules
Tested on: Staphylococcus aureus
Test: Minimum inhibitory concentration (MIC) against Staphylococcus aureus
Type: functional
test.readout: MIC (µg/mL)

* CCCCCCCCCCCCn1ccnc1 | 14200
* CCCCCCCCCCCCn1ccnc1C | 17500
* CCCn1ccnc1 | 44
* CCCCCCCCCCCn1ccnc1 | 1110
* CCCCn1ccnc1 | 87
* CCCCCn1ccnc1 | 69
* CCCCCCn1ccnc1 | 46
* CCCCCCCCCCCCCCn1ccnc1 | 19800
* CCCCn1cc([N+](=O)[O-])nc1C | 17

---

Tested on: Pseudomonas aeruginosa
Assay: Minimum inhibitory concentration (MIC) against Pseudomonas aeruginosa
Assay type: functional
test.readout: MIC

* CCCCCCCCCn1ccnc1 | 39 µg/mL
* CCn1ccnc1 | 960 µg/mL
* CCCCCCCCCCCn1ccnc1 | 2220 µg/mL
* CCCCCCCCCCCCCn1ccnc1 | 20000 µg/mL
* CCCCCCCCCCCCCCn1ccnc1 | 23800 µg/mL
* CCCCCCCCCCn1ccnc1 | 416 µg/mL
* CCCn1ccnc1 | 550 µg/mL
* CCCCCCCn1ccnc1 | 83 µg/mL
* CCCCn1ccnc1 | 248 µg/mL
* CCCCCn1ccnc1 | 138 µg/mL
* CCCCCCn1ccnc1 | 122 µg/mL
* CCCCCCCCn1ccnc1 | 54 µg/mL
* CCCCCCCCCCCCn1ccnc1 | 16500 µg/mL

---

System: Staphylococcus aureus
Test: Minimum inhibitory concentration (MIC) against Staphylococcus aureus
Type: functional
# key: entry, value: MIC
test.readout: MIC (µg/mL)

* CCCCCCCCCCCCCn1ccnc1 | 17500
* CCCCCCn1ccnc1C | 25
* CCCCCCCCn1cc([N+](=O)[O-])nc1C | 24
